SYSTEM_UNDER_TEST: FAAH (Mus musculus)
Construct: A fragment of liver, left lung lobe and brain without cerebellum were removed; from tissue; host or cells: male NMRI mice; brain (without cerebellum) and liver homogenates
PROTOCOL_DETAILS: In vivo FAAH inhibition after oral dosing, remaining activity in liver homogenate (LVh, peripheral tissue)
Parameters: species or system NMRI mice
DETAILS: liver homogenate, 3 mg/kg, 8 h
MEASUREMENT_NAME: In Vivo LVh 3 mg/kg 8 h, remaining FAAH activity

What measured In Vivo LVh 3 mg/kg 8 h, remaining FAAH activity goes with CC1(C)COCN1C(=O)n1cnc(-c2ccc(Cl)cc2)n1 ? 87.6 % of control

What measured In Vivo LVh 3 mg/kg 8 h, remaining FAAH activity goes with CC1OCC(C)(C)N1C(=O)n1cnc(-c2ccc(Cl)cc2)c1 (stereo not drawn) ? 80.1 % of control

What measured In Vivo LVh 3 mg/kg 8 h, remaining FAAH activity goes with NC(=O)c1ccc(Oc2cccc(-c3ncn(C(=O)N4CCN(c5ccccc5)CC4)n3)c2)cc1 ? 96.7 % of control

* * *

SYSTEM_UNDER_TEST: FAAH (Rattus norvegicus, UniProt P97612)
Construct: Frozen brains (without cerebellum) from Wistar rats were used; from tissue; host or cells: Wistar rat brain (without cerebellum), washed membrane pellets
Sequence (P97612 whole entry): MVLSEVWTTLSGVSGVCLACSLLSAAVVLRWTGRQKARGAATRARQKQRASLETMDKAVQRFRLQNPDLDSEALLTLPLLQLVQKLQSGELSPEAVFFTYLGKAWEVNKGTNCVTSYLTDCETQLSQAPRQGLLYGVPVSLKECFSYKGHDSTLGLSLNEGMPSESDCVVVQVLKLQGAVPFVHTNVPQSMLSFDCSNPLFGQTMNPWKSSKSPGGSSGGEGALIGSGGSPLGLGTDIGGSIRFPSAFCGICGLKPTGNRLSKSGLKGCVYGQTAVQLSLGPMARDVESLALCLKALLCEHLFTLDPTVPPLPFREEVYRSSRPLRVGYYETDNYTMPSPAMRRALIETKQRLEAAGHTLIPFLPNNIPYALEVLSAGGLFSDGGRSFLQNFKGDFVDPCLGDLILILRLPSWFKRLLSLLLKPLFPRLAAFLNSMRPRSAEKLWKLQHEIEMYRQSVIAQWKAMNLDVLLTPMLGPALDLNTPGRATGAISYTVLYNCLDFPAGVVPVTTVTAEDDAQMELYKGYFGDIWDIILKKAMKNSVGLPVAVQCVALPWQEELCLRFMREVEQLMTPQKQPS
PROTOCOL_DETAILS: In vitro FAAH activity in rat brain membranes, 3H-AEA substrate, % of control
Assay type: biochemical, Wistar rats
DETAILS: 100 nM test compound, low value = strong inhibitor
MEASUREMENT_NAME: In Vitro FAAH activity, 100 nM

What measured In Vitro FAAH activity, 100 nM goes with O=C(N1CCN(C2CCCCC2)CC1)n1nnc2ccccc21 ? 0.1 % of control

What measured In Vitro FAAH activity, 100 nM goes with CN(C(=O)n1nnc2ccc(-c3ccc(F)cc3)cc21)C1CCCCC1 ? 2.3 % of control

What measured In Vitro FAAH activity, 100 nM goes with CN(Cc1ccccc1)C(=O)n1cnc(-c2ccc(F)cc2)c1 ? 1.2 % of control

What measured In Vitro FAAH activity, 100 nM goes with O=C(Nc1ccc(Cl)cc1)n1nnc2ccccc21 ? 93.7 % of control

What measured In Vitro FAAH activity, 100 nM goes with CN(C(=O)n1cnc(-c2ccc(N)cc2)c1)c1ccccc1 ? 89 % of control

* * *

Record form. Attribute: In Vivo BRh 3 mg/kg 8 h, remaining FAAH activity. Fill in for each entry.
SYSTEM_UNDER_TEST: FAAH (Mus musculus)
Construct: A fragment of liver, left lung lobe and brain without cerebellum were removed; from tissue; host or cells: male NMRI mice; brain (without cerebellum) and liver homogenates
Sequence (O08914 1-579): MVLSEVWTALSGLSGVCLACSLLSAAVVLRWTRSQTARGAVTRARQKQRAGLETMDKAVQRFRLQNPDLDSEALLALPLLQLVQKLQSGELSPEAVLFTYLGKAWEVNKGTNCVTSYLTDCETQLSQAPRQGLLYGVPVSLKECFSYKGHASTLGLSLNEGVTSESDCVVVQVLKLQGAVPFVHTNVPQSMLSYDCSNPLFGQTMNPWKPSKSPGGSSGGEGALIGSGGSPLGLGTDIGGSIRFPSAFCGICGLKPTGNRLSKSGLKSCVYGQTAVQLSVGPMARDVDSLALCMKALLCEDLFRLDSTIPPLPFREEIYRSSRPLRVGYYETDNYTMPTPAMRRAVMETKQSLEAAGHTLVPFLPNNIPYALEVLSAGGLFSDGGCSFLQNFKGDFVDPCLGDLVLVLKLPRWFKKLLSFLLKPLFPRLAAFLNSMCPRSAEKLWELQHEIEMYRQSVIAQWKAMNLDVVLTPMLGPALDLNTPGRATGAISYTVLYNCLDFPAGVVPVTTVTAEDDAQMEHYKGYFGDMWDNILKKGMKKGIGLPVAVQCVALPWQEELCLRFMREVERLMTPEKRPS
PROTOCOL_DETAILS: In vivo FAAH inhibition after oral dosing, remaining activity in brain homogenate (BRh, central nervous tissue)
Design: species or system NMRI mice
DETAILS: brain homogenate, 3 mg/kg, 8 h

What measured In Vivo BRh 3 mg/kg 8 h, remaining FAAH activity goes with O=C(N1CCC(OCCCc2ccccc2)CC1)n1nnc2ccccc21 ? 26.5 % of control

What measured In Vivo BRh 3 mg/kg 8 h, remaining FAAH activity goes with CN(C(=O)n1cnc(-c2ccc(OCCN3CCNCC3)cc2)c1)c1ccccc1.Cl.Cl ? 101.8 % of control

What measured In Vivo BRh 3 mg/kg 8 h, remaining FAAH activity goes with O=C(NC1CCCCC1)n1nnc2ccccc21 ? 3.4 % of control

What measured In Vivo BRh 3 mg/kg 8 h, remaining FAAH activity goes with CC1(C)COCN1C(=O)n1cnc(-c2ccc(O)cc2)c1 ? 8.1 % of control

What measured In Vivo BRh 3 mg/kg 8 h, remaining FAAH activity goes with CN(C(=O)n1nnc2ccccc21)C1CCCCC1 ? 0.5 % of control

What measured In Vivo BRh 3 mg/kg 8 h, remaining FAAH activity goes with CC1(C)COCN1C(=O)n1cnc(-c2ccc(Cl)cc2)n1 ? 105.9 % of control

What measured In Vivo BRh 3 mg/kg 8 h, remaining FAAH activity goes with Cl.N#Cc1ccc(Oc2ccc(-c3ncn(C(=O)N4CCN(c5ccccc5)CC4)n3)cc2)cc1 ? 89.9 % of control

What measured In Vivo BRh 3 mg/kg 8 h, remaining FAAH activity goes with CC1(C)COCN1C(=O)n1cnc(-c2cccc(-c3ccccc3)c2)c1 ? 3.9 % of control

What measured In Vivo BRh 3 mg/kg 8 h, remaining FAAH activity goes with CC1(C)COCN1C(=O)n1nnc2ccccc21 ? 1.8 % of control

What measured In Vivo BRh 3 mg/kg 8 h, remaining FAAH activity goes with CN(C(=O)n1cnc(-c2cccc(-c3cccc(OC(F)(F)F)c3)c2)c1)C1CCCCC1 ? 104.2 % of control

What measured In Vivo BRh 3 mg/kg 8 h, remaining FAAH activity goes with NC(=O)c1ccc(Oc2ccc(-c3ncn(C(=O)N4CCN(c5ccccc5)CC4)n3)cc2)cc1 ? 113.7 % of control

What measured In Vivo BRh 3 mg/kg 8 h, remaining FAAH activity goes with CC1(C)COCN1C(=O)n1cnc(-c2cccnc2)c1.Cl.Cl ? 8.4 % of control

What measured In Vivo BRh 3 mg/kg 8 h, remaining FAAH activity goes with Cc1ccc(OC2CCN(C(=O)n3nnc4ccccc43)CC2)cc1 ? 99.1 % of control

What measured In Vivo BRh 3 mg/kg 8 h, remaining FAAH activity goes with O=C(N1CCN(c2ccccc2)CC1)n1cnc(-c2cccs2)n1 ? 144.1 % of control

What measured In Vivo BRh 3 mg/kg 8 h, remaining FAAH activity goes with CN(C(=O)n1cnc(-c2cccc(-c3cccc(Cl)c3)c2)c1)C1CCCCC1 ? 60.1 % of control

What measured In Vivo BRh 3 mg/kg 8 h, remaining FAAH activity goes with CN(Cc1ccccc1)C(=O)n1cnc(-c2cccc3ccccc23)n1 ? 60 % of control

Sourced from patent US9353082B2
